- methodDescription: Volume of distribution at steady state in Sprague-Dawley rat at 1 mg/kg, iv and 3 mg/kg, po
- Assay type: ADME, organism-based
- protocolConditions: in vivo, read-out: Vdss
metric: Vd (L/kg)

compound	endpointValue
O=C(O)C1=CCN(C2CCC3(Cc4ccccc4Oc4ccccc43)C2)CC1 (centres undefined)	2.7
O=C(O)C1=CCCN(C2CC[C@]3(Cc4ccccc4Cc4ccccc43)C2)C1 (single isomer, unassigned; stereoisomer 1)	0.4

I: O=C(O)C1CN(C2CC[C@]3(Cc4ccccc4Cc4ccccc43)C2)C1 (some centres undefined)
II: O=C(O)C1(F)CCN(C2CC[C@]3(Cc4ccccc4Cc4ccccc43)C2)CC1 (some centres undefined)
**Query** Please let me know which one, I or II , has a lower measured Vd value. // respond with label for picked entry
**Result** I
(I: 2.1 L/kg, II: 3.8 L/kg)

---

- targetEntity: 5-hydroxytryptamine receptor 2B (Homo sapiens, UniProt P41595)
- Sequence (P41595 whole entry): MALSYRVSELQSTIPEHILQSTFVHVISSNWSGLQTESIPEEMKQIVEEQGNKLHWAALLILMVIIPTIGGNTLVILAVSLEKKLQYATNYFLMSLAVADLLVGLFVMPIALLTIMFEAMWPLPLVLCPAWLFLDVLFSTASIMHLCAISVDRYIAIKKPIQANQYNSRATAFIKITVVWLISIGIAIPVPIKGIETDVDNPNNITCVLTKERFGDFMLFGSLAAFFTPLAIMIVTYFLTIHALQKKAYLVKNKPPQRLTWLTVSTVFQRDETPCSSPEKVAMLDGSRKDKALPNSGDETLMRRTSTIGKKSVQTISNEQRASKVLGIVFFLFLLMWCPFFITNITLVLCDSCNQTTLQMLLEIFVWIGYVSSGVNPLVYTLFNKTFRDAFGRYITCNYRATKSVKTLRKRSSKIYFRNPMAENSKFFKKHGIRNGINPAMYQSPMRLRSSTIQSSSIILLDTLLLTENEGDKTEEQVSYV
- methodDescription: Antagonist activity at human 5HT2B receptor expressed in human SH-SY5Y cells by FLIPR assay
pKi: −log10 of the molar value.
metric: pKi

compound	pKi
O=C(O)CC1CCN(C2CCC3(Cc4ccccc4Cc4ccccc43)C2)CC1 (centres undefined)	6.00

a: O=C(O)[C@@H]1CCCN(C2CC[C@]3(Cc4ccccc4Cc4ccccc43)C2)C1 (some centres undefined)
b: CN(C)C1CC[C@]2(Cc3ccccc3Cc3ccccc32)C1 (some centres undefined)
**Query** Between these two entries, a and b , state which has the higher pKi. // respond with label for picked entry
**Result** b
(b: 7.80, a: 5.90)

---

- targetEntity: Cytochrome P450 2D6 (Homo sapiens)
- Sequence (P10635 whole entry): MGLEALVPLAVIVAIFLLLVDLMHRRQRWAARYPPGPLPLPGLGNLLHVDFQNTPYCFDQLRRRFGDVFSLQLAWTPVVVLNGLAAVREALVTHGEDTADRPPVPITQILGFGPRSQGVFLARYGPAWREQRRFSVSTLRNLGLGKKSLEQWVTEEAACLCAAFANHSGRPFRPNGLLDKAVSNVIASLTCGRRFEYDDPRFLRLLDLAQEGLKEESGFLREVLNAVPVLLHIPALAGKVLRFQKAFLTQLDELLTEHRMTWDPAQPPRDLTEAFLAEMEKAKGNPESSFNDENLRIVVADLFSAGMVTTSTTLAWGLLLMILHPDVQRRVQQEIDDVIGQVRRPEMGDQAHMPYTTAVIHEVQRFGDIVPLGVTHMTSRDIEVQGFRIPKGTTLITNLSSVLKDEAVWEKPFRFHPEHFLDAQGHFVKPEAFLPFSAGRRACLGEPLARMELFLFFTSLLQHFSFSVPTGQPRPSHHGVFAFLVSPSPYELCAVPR
metric: IC50

Take a look at these entries with their results.
compound	targetEntity	IC50
O=C(O)C1(F)CCN(C2CC[C@]3(Cc4ccccc4Cc4ccccc43)C2)CC1 (stereo partly drawn)	Cytochrome P450 2D6 (Homo sapiens)	> 10 µM
O=C(O)C1CN(C2CC[C@]3(Cc4ccccc4Cc4ccccc43)C2)C1 (stereo partly drawn)	Cytochrome P450 2D6 (Homo sapiens)	> 10 µM

Kindly review the next compound as well.
**Query** Notebook entry, Cytochrome P450 2D6 (Homo sapiens) assay: IC50 of O=C(O)C1=CCCN(C2CC[C@]3(Cc4ccccc4Cc4ccccc43)C2)C1 (single isomer, unassigned; stereoisomer 1) = ?
**Result** > 10 µM

---

- targetEntity: 5-hydroxytryptamine receptor 2B (Homo sapiens, UniProt P41595)
- methodDescription: Antagonist activity at human 5HT2B receptor expressed in human SH-SY5Y cells by FLIPR assay
pKi: −log10 of the molar value.
metric: pKi

compound	targetEntity	pKi
O=C(O)C1(O)CCN(C2CCC3(Cc4ccccc4Cc4ccccc43)C2)CC1 (stereo not given)	5-hydroxytryptamine receptor 2B (Homo sapiens, UniProt P41595)	6.60
CN1CCC(=C2c3ccccc3CC(=O)c3sccc32)CC1	5-hydroxytryptamine receptor 2B (Homo sapiens, UniProt P41595)	7.50
O=C(O)[C@]12C[C@H]1CN(C1CC[C@]3(Cc4ccccc4Cc4ccccc43)C1)C2 (stereo not given in full)	5-hydroxytryptamine receptor 2B (Homo sapiens, UniProt P41595)	6.40
O=C(O)C1CN(C2CC[C@]3(Cc4ccccc4Cc4ccccc43)C2)CCN1 (stereo not given in full)	5-hydroxytryptamine receptor 2B (Homo sapiens, UniProt P41595)	5.90
O=C(O)C1CCN(C2CC[C@]3(Cc4ccccc4Cc4ccccc43)C2)C1 (stereo not given in full)	5-hydroxytryptamine receptor 2B (Homo sapiens, UniProt P41595)	7.00

a: O=C(O)C1CN(C2CC[C@]3(Cc4ccccc4Cc4ccccc43)C2)C1 (stereo not given in full)
b: CC1(C(=O)O)CCN(C2CC[C@]3(Cc4ccccc4Cc4ccccc43)C2)C1 (stereo not given in full)
**Query** Please let me know which one, a or b , has a lower measured pKi value. // respond with label for picked entry
**Result** a
(a: 7.10, b: 8.00)

---

- targetEntity: 5-hydroxytryptamine receptor 2A (Homo sapiens)
- methodDescription: Antagonist activity at human 5HT2A receptor expressed in HEK cells assessed as inhibition of intracellular calcium accumulation by aequorin assay
- Type: functional, cell-based, HEK293
pKi: −log10 of the molar value.
metric: pKi

Take a look at these entries with their results.
compound	pKi
CC1(C(=O)O)CCN(C2CC[C@]3(Cc4ccccc4Cc4ccccc43)C2)C1 (stereo not given in full)	7.90
O=C(O)C1=CCCN(C2CC[C@@]3(Cc4ccccc4Cc4ccccc43)C2)C1 (stereo not given in full)	5.40

P: O=C(O)CC1CCN(C2CCC3(Cc4ccccc4Cc4ccccc43)C2)CC1 (stereo not given)
Q: O=C(O)C1(O)CCN(C2CCC3(Cc4ccccc4Cc4ccccc43)C2)CC1 (stereo not given)
**Query** Between these two entries, P and Q , state which has the higher pKi. // respond with label for picked entry
**Result** Q

---

- targetEntity: 5-hydroxytryptamine receptor 2A (Homo sapiens, UniProt P28223)
- Sequence (P28223 whole entry): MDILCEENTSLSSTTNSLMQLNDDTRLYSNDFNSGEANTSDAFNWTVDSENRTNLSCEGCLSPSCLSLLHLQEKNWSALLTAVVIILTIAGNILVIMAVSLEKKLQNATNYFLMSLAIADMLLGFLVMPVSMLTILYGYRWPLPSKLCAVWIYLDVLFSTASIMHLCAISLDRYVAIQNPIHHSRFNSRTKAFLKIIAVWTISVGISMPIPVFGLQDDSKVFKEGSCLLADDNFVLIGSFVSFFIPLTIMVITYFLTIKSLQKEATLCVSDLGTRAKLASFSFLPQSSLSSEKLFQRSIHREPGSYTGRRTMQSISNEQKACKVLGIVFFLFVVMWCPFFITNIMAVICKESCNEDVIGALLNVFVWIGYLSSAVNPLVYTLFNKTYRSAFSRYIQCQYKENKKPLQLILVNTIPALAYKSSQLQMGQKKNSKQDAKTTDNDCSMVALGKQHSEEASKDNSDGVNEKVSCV
- methodDescription: Antagonist activity at human 5HT2A receptor expressed in HEK cells assessed as inhibition of intracellular calcium accumulation by aequorin assay
metric: Ki (nM)

Take a look at these entries with their results.
compound	Ki (nM)
O=C(O)CC1CN(C2CCC3(Cc4ccccc4Cc4ccccc43)C2)C1 (stereo not given)	50.1
O=C(O)[C@@H]1CCCN(C2CC[C@]3(Cc4ccccc4Cc4ccccc43)C2)C1 (stereo not given in full)	63.1
O=C(O)C1CCN(C2CC[C@]3(Cc4ccccc4Cc4ccccc43)C2)C1 (stereo not given in full)	20

I: O=C(O)C1=CCN(C2CCC3(Cc4ccccc4Oc4ccccc43)C2)CC1 (stereo not given)
II: O=C(O)C1CCN(C2CCC3(Cc4ccccc4Oc4ccccc43)C2)CC1 (stereo not given)
III: O=C(O)C1=CCN(C2CCC3(Cc4ccccc4Cc4ccccc43)C2)CC1 (stereo not given)
**Query** Sort these compounds on Ki so the largest reading comes first. Output the labels ranked as instructed.
**Result** II, III, I
(II: 316 nM, III: 79.4 nM, I: 25.1 nM)

P: O=C(O)[C@]12C[C@H]1CN(C1CC[C@]3(Cc4ccccc4Cc4ccccc43)C1)C2 (stereo not given in full)
Q: O=C(O)C1CN(C2CC[C@]3(Cc4ccccc4Cc4ccccc43)C2)C1 (stereo not given in full)
R: O=C(O)CCNC1CC[C@@]2(Cc3ccccc3Cc3ccccc32)C1 (stereo not given in full)
S: O=C(O)C=C1CN(C2CCC3(Cc4ccccc4Cc4ccccc43)C2)C1 (stereo not given)
T: O=C(O)C1=CCCN(C2CCC3(Cc4ccccc4Oc4ccccc43)C2)C1 (stereo not given)
**Query** Sort these compounds on Ki so the largest reading comes first. Output the labels ranked as instructed.
**Result** R, T, S, P, Q
(R: 2000 nM, T: 398 nM, S: 50.1 nM, P: 31.6 nM, Q: 15.8 nM)

---

- methodDescription: Fraction unbound in rat blood
- Assay type: ADME, tissue-based
metric: fraction unbound

Take a look at these entries with their results.
compound	metric	endpointValue
O=C(O)C1CCN(C2CC[C@]3(Cc4ccccc4Cc4ccccc43)C2)CC1 (some centres not stated)	fraction unbound	0.182
O=C(O)C1(F)CCN(C2CC[C@]3(Cc4ccccc4Cc4ccccc43)C2)CC1 (some centres not stated)	fraction unbound	0.084
O=C(O)C1=CCCN(C2CC[C@]3(Cc4ccccc4Cc4ccccc43)C2)C1 (single isomer, unassigned; stereoisomer 1)	fraction unbound	0.024
O=C(O)[C@]12C[C@H]1CN(C1CC[C@]3(Cc4ccccc4Cc4ccccc43)C1)C2 (some centres not stated)	fraction unbound	0.08
O=C(O)C1CN(C2CC[C@]3(Cc4ccccc4Cc4ccccc43)C2)C1 (some centres not stated)	fraction unbound	0.12

A: O=C(O)C1=CCN(C2CCC3(Cc4ccccc4Oc4ccccc43)C2)CC1 (configuration not stated)
B: O=C(O)C1CN(C2CCC3(Cc4ccccc4Oc4ccccc43)C2)C1 (configuration not stated)
**Query** Please let me know which one, A or B , has a lower measured fraction unbound value. // respond with label for picked entry
**Result** A
(A: 0.103, B: 0.171)

---

- methodDescription: Half life in Sprague-Dawley rat at 1 mg/kg, iv and 3 mg/kg, po
- Type: ADME, organism-based
- protocolConditions: in vivo
metric: half-life (h)

molecule	metric	unitString	endpointValue
O=C(O)C1=CCCN(C2CC[C@]3(Cc4ccccc4Cc4ccccc43)C2)C1 (single isomer, unassigned; stereoisomer 1)	half-life	h	2.4
O=C(O)C1=CCN(C2CCC3(Cc4ccccc4Oc4ccccc43)C2)CC1 (centres undefined)	half-life	h	3

P: O=C(O)C1CN(C2CC[C@]3(Cc4ccccc4Cc4ccccc43)C2)C1 (some centres undefined)
Q: O=C(O)C1(F)CCN(C2CC[C@]3(Cc4ccccc4Cc4ccccc43)C2)CC1 (some centres undefined)
**Query** Between these two entries, P and Q , state which has the higher half-life. // respond with label for picked entry
**Result** P

---

- targetEntity: 5-hydroxytryptamine receptor 2B (Homo sapiens, UniProt P41595)
- methodDescription: Antagonist activity at human 5HT2B receptor expressed in human SH-SY5Y cells by FLIPR assay
metric: Ki (nM)

Take a look at these entries with their results.
compound	Ki / nM
O=C(O)C1CCN(C2CC[C@]3(Cc4ccccc4Cc4ccccc43)C2)CC1 (stereo not given in full)	158
O=C(O)C1CCN(C2CCC3(Cc4ccccc4Oc4ccccc43)C2)CC1 (stereo not given)	1580
O=C(O)C1CN(C2CCC3(Cc4ccccc4Oc4ccccc43)C2)C1 (stereo not given)	794
O=C(O)CC1CN(C2CCC3(Cc4ccccc4Cc4ccccc43)C2)C1 (stereo not given)	39.8

A: O=C(O)CC1CCN(C2CC[C@]3(Cc4ccccc4Cc4ccccc43)C2)C1 (stereo not given in full)
B: CC1(C(=O)O)CCN(C2CCC3(Cc4ccccc4Cc4ccccc43)C2)CC1 (stereo not given)
**Query** Between these two entries, A and B , state which has the higher Ki. // respond with label for picked entry
**Result** A
(A: 1000 nM, B: 3.16 nM)
